Each recorded value in this set is attributed to patent US20250154554A1.

System: Gram-negative bacteria (Enterobacterales, Pseudomonas, Acinetobacter)
particulars: number of strains resistant; EUCAST; Hospital Ramon et Cajal, Madrid; patients' blood cultures
quantity: EUCAST RM R
// return a plain number; no unit text

Some solved cases for reference:
| chemical_structure | EUCAST RM R |
| --- | --- |
| CC1(C)S[C@@H]2[C@H](NC(=O)[C@H](N)c3ccccc3)C(=O)N2[C@H]1C(=O)O | 54 |
| CO/N=C(\C(=O)N[C@@H]1C(=O)N2C(C(=O)O)=C(COC(C)=O)CS[C@H]12)c1csc(N)n1 | 13 |
| NCC[C@H](O)C(=O)N[C@@H]1C[C@H](N)[C@@H](O[C@H]2O[C@H](CN)[C@@H](O)[C@H](O)[C@H]2O)[C@H](O)[C@H]1O[C@H]1O[C@H](CO)[C@@H](O)[C@H](N)[C@H]1O | 1 |
| C[C@@H](O)[C@H]1C(=O)N2C(C(=O)O)=C(S[C@@H]3CN[C@H](C(=O)N(C)C)C3)[C@H](C)[C@H]12 | 3 |

Any idea what EUCAST RM R was measured for `CC(C)(O/N=C(\C(=O)N[C@@H]1C(=O)N2C(C(=O)[O-])=C(C[n+]3ccccc3)CS[C@H]12)c1csc(N)n1)C(=O)O` ?
15

* * *

Test system: Gram-positive bacteria (Staphylococcus spp, Enterococcus spp)
assay: Reference method (RM): disk diffusion and/or broth microdilution, S/I/R classification, Gram-positive strains
Type: cell-based
particulars: CLSI; total of 3 sites; blood cultures
quantity: RM R (strains resistant by reference method)
// return a plain number; no unit text

Some solved cases for reference:
| chemical_structure | system | reported_measurement |
| --- | --- | --- |
| CO[C@@]1(NC(=O)Cc2cccs2)C(=O)N2C(C(=O)O)=C(COC(N)=O)CS[C@@H]21 | Gram-positive bacteria (Staphylococcus spp, Enterococcus spp) | 52 |
| Cc1onc(-c2ccccc2)c1C(=O)N[C@@H]1C(=O)N2[C@@H]1SC(C)(C)[C@@H]2C(=O)O | Gram-positive bacteria (Staphylococcus spp, Enterococcus spp) | 74 |
| CC1(C)S[C@@H]2[C@H](NC(=O)[C@H](N)c3ccccc3)C(=O)N2[C@H]1C(=O)O | Gram-positive bacteria (Staphylococcus spp, Enterococcus spp) | 38 |
| CC(=O)NC[C@H]1CN(c2ccc(N3CCOCC3)c(F)c2)C(=O)O1 | Gram-positive bacteria (Staphylococcus spp, Enterococcus spp) | 5 |

# ---- query molecule ----
Any idea what RM R (strains resistant by reference method) was measured for `CN[C@H](CC(C)C)C(=O)N[C@H]1C(=O)N[C@@H](CC(N)=O)C(=O)N[C@H]2C(=O)N[C@H]3C(=O)N[C@H](C(=O)N[C@H](C(=O)O)c4cc(O)cc(O)c4-c4cc3ccc4O)[C@H](O)c3ccc(c(Cl)c3)Oc3cc2cc(c3O[C@@H]2O[C@H](CO)[C@@H](O)[C@H](O)[C@H]2O[C@H]2C[C@](C)(N)[C@H](O)[C@H](C)O2)Oc2ccc(cc2Cl)[C@H]1O` ?
8

* * *

Test system: Gram-negative bacteria (Enterobacterales, Pseudomonas, Acinetobacter)
particulars: number of strains susceptible; EUCAST; Hospital S. João, Porto; patients' blood cultures
quantity: EUCAST RM S
// return a plain number; no unit text

Some solved cases for reference:
| molecule | quantity | reported_measurement |
| --- | --- | --- |
| CC1(C)S[C@@H]2[C@H](NC(=O)[C@H](N)c3ccccc3)C(=O)N2[C@H]1C(=O)O [Ampicillin] | EUCAST RM S | 32 |
| NCC[C@H](O)C(=O)N[C@@H]1C[C@H](N)[C@@H](O[C@H]2O[C@H](CN)[C@@H](O)[C@H](O)[C@H]2O)[C@H](O)[C@H]1O[C@H]1O[C@H](CO)[C@@H](O)[C@H](N)[C@H]1O [Amikacin] | EUCAST RM S | 80 |
| CO/N=C(\C(=O)N[C@@H]1C(=O)N2C(C(=O)O)=C(COC(C)=O)CS[C@H]12)c1csc(N)n1 [Cefotaxime] | EUCAST RM S | 68 |
| CC(C)(O/N=C(\C(=O)N[C@@H]1C(=O)N2C(C(=O)[O-])=C(C[n+]3ccccc3)CS[C@H]12)c1csc(N)n1)C(=O)O [Ceftazidime] | EUCAST RM S | 73 |

# ---- query molecule ----
Any idea what EUCAST RM S was measured for C[C@@H](O)[C@H]1C(=O)N2C(C(=O)O)=C(S[C@@H]3CN[C@H](C(=O)N(C)C)C3)[C@H](C)[C@H]12 [Meropenem] ?
76

* * *

System: Gram-positive bacteria (Staphylococcus spp, Enterococcus spp)
assay: Reference method (RM): disk diffusion and/or broth microdilution, S/I/R classification, Gram-positive strains
Type: cell-based
particulars: EUCAST; FASTinov, Porto; spiked blood cultures
Threshold check on RM S (strains susceptible by reference method): at or above 100 gives YES, strictly below gives NO.

| molecule | class_assignment |
| --- | --- |
| CO[C@@]1(NC(=O)Cc2cccs2)C(=O)N2C(C(=O)O)=C(COC(N)=O)CS[C@@H]21 [Cefoxitin] | NO |
| CC(=O)NC[C@H]1CN(c2ccc(N3CCOCC3)c(F)c2)C(=O)O1 [Linezolid] | YES |
| Cc1onc(-c2ccccc2)c1C(=O)N[C@@H]1C(=O)N2[C@@H]1SC(C)(C)[C@@H]2C(=O)O [Oxacillin] | NO |

Could you please find out whether CC1(C)S[C@@H]2[C@H](NC(=O)[C@H](N)c3ccccc3)C(=O)N2[C@H]1C(=O)O [Ampicillin] has RM S (strains susceptible by reference method) that meets 100 or exceeds it?
NO

* * *

Test system: Gram-positive bacteria (Staphylococcus spp, Enterococcus spp)
assay: Reference method (RM): disk diffusion and/or broth microdilution, S/I/R classification, Gram-positive strains
Type: cell-based
particulars: number of strains resistant; EUCAST; Hospital Ramon et Cajal, Madrid; patients blood cultures
Form field: EUCAST RM R (one value per entry).

Some solved cases for reference:
| chemical_structure | EUCAST RM R |
| --- | --- |
| Cc1onc(-c2ccccc2)c1C(=O)N[C@@H]1C(=O)N2[C@@H]1SC(C)(C)[C@@H]2C(=O)O | 19 |
| CO[C@@]1(NC(=O)Cc2cccs2)C(=O)N2C(C(=O)O)=C(COC(N)=O)CS[C@@H]21 | 9 |
| C[C@@H](O)[C@H]1C(=O)N2C(C(=O)O)=C(SCCN=CN)C[C@H]12 | 1 |

# ---- query compound ----
Any idea what EUCAST RM R was measured for `CC1(C)S[C@@H]2[C@H](NC(=O)[C@H](N)c3ccccc3)C(=O)N2[C@H]1C(=O)O` ?
10

* * *

Test system: Gram-positive bacteria (Staphylococcus spp, Enterococcus spp)
assay: Reference method (RM): disk diffusion and/or broth microdilution, S/I/R classification, Gram-positive strains;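 also: susceptibility categories assigned with the latest EUCAST breakpoint tables or CLSI M100 29th edition breakpoints, with quality control of the reference methods following EUCAST and CLSI guidance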
Format: cell-based
particulars: number of strains susceptible; CLSI; Hospital Ramon et Cajal, Madrid; patients blood cultures
quantity: CLSI RM S
// return a plain number; no unit text

Some solved cases for reference:
| chemical_structure | CLSI RM S |
| --- | --- |
| CN[C@H](CC(C)C)C(=O)N[C@H]1C(=O)N[C@@H](CC(N)=O)C(=O)N[C@H]2C(=O)N[C@H]3C(=O)N[C@H](C(=O)N[C@H](C(=O)O)c4cc(O)cc(O)c4-c4cc3ccc4O)[C@H](O)c3ccc(c(Cl)c3)Oc3cc2cc(c3O[C@@H]2O[C@H](CO)[C@@H](O)[C@H](O)[C@H]2O[C@H]2C[C@](C)(N)[C@H](O)[C@H](C)O2)Oc2ccc(cc2Cl)[C@H]1O | 56 |
| CC1(C)S[C@@H]2[C@H](NC(=O)[C@H](N)c3ccccc3)C(=O)N2[C@H]1C(=O)O | 12 |
| CO[C@@]1(NC(=O)Cc2cccs2)C(=O)N2C(C(=O)O)=C(COC(N)=O)CS[C@@H]21 | 13 |

Any idea what CLSI RM S was measured for `Cc1onc(-c2ccccc2)c1C(=O)N[C@@H]1C(=O)N2[C@@H]1SC(C)(C)[C@@H]2C(=O)O` ?
5

Again, but for `CC(=O)NC[C@H]1CN(c2ccc(N3CCOCC3)c(F)c2)C(=O)O1`
68

* * *

Tested on: Gram-negative bacteria (Enterobacterales, Pseudomonas, Acinetobacter)
particulars: number of strains resistant; EUCAST; FASTinov, Porto; spiked on blood cultures
Form field: EUCAST RM R (one value per entry).

Some solved cases for reference:
| chemical_structure | system | EUCAST RM R |
| --- | --- | --- |
| C[C@@H](O)[C@H]1C(=O)N2C(C(=O)O)=C(S[C@@H]3CN[C@H](C(=O)N(C)C)C3)[C@H](C)[C@H]12 | Gram-negative bacteria (Enterobacterales, Pseudomonas, Acinetobacter) | 6 |
| CC1(C)S[C@@H]2[C@H](NC(=O)[C@H](N)c3ccccc3)C(=O)N2[C@H]1C(=O)O | Gram-negative bacteria (Enterobacterales, Pseudomonas, Acinetobacter) | 67 |
| CC(C)(O/N=C(\C(=O)N[C@@H]1C(=O)N2C(C(=O)[O-])=C(C[n+]3ccccc3)CS[C@H]12)c1csc(N)n1)C(=O)O | Gram-negative bacteria (Enterobacterales, Pseudomonas, Acinetobacter) | 98 |
| NCC[C@H](O)C(=O)N[C@@H]1C[C@H](N)[C@@H](O[C@H]2O[C@H](CN)[C@@H](O)[C@H](O)[C@H]2O)[C@H](O)[C@H]1O[C@H]1O[C@H](CO)[C@@H](O)[C@H](N)[C@H]1O | Gram-negative bacteria (Enterobacterales, Pseudomonas, Acinetobacter) | 27 |

Any idea what EUCAST RM R was measured for `CO/N=C(\C(=O)N[C@@H]1C(=O)N2C(C(=O)O)=C(COC(C)=O)CS[C@H]12)c1csc(N)n1` ?
54
